Record form. Attribute: IC50. Fill in for each entry.
Target: UniProtKB J9F199
Type: biochemical
Settings: read-out: IC50 against WbDHFR Trial 2; individual trial
Your answer should be a plain number; it is taken to be in µM.

Task: Dear colleague, I am looking for the recorded IC50 of the following compound: CCc1nc(N)nc(N)c1-c1ccc(Cl)cc1
Result: 494

Task: // lookup IC50 for Cc1nc2ccc(CN(C)c3ccc(C(=O)N[C@@H](CCC(=O)O)C(=O)O)s3)cc2c(=O)[nH]1
Result: 11.7

Task: Record request: IC50 value, item Nc1nc(N)c2nc(CNc3ccc(C(=O)N[C@@H](CCC(=O)O)C(=O)O)cc3)cnc2n1
Result: 0.00996

Recorded values, source paper PMC5963757.
